Assay: Cell Proliferation Assay against the TMD8 Cell Line (AID 651645);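 also: cells exposed to compound for 48 h before reading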
Details: TMD8 DLBCL cell line proliferation/viability; at 46.1 µM (top of the series) unless noted
Source text: One class of targeted therapeutics showing early clinical success in killing of ABC DLBCL lines are small molecule inhibitors of the Bruton tyrosine kinase (BTK) 11. Prior to any combination assays, using an NCATS developed oncology compound library called the Mechanism of Interrogation Plate (MIPE), two well studied ABC DLBCL lines (TMD8 and HBL1) were screened using a cell viability assay (CellTiterGlo) and a 12-point titration series for each single agent. […]
Field: label. Allowed values: fulfilled (viability (% of control) < 20%) or not fulfilled (viability (% of control) >= 20%).

Task item: Consider the compound C[C@@H](N)C1CCC(C(=O)Nc2ccncc2)CC1 (some centres undefined) . Is its viability (% of control) strictly less than 20%?
Reply: not fulfilled

Task item: Does this compound meet the criterion viability (% of control) < 20%? CCN(CC)CCOc1ccc(Nc2ncc3cc(-c4c(Cl)cccc4Cl)c(=O)n(C)c3n2)cc1
Reply: fulfilled

Task item: API: query returns whether the compound falls strictly under 20% in viability (% of control). Query: Cc1ccc(NC(=O)c2ccc(CN3CCN(C)CC3)cc2)cc1Nc1nccc(-c2cccnc2)n1
Reply: not fulfilled

Task item: Here's an entry: CCOC(=O)C(C)Oc1cccc2c(=O)n(CC(=O)Nc3ccc4c(c3)OCCO4)ccc12 (centres undefined) . Is its viability (% of control) below 20%?
Reply: not fulfilled

Task item: Check if viability (% of control) falls below 20% for Cc1cccc(C#Cc2ccccc2)n1 .
Reply: not fulfilled

Task item: API: query returns whether the compound falls strictly under 20% in viability (% of control). Query: CC(C)C[C@H](NC(=O)[C@H](Cc1ccccc1)NC(=O)c1cnccn1)B(O)O
Reply: fulfilled

---

System: MCC-26
Assay: qHTS assay to identify novel small-molecules to repurpose for Merkel cell carcinoma treatment (AID 1296009); also: nearly all actives have a fitted effect of over 60% in size
Details: MCC and control cell lines, CellTiter-Glo viability, 72 h; series mostly up to 46 µM
Inconclusive results are not listed. Activity calls are given as the source filed them. Calls follow the shape of the dose curve; as a rule, active = well fitted inhibition curve with a large enough effect; inconclusive = small, poorly fitted or top-dose-only effect; inactive = flat fitted curve, though single readings scatter. Non-standard residues stand in square brackets, D forms with d. Residues, ends and D or L forms follow the SMILES beside them. Peptide text beside a SMILES is read from it. *: point of attachment. Sta = CC(C)C[C@H](N)[C@@H](O)CC(=O)O; Isovaleryl = CC(C)CC(=O)*
Give one outcome, nothing more. List: TRUE (active), FALSE (inactive)

Task item: Answer briefly: the call reported for O=C(O)CCNC(=O)c1ccc(N=Nc2ccc(O)c(C(=O)O)c2)cc1 in this assay.
Reply: FALSE

Task item: # fetch the recorded call for N[C@@H](Cc1cc(I)c(Oc2cc(I)c(O)c(I)c2)c(I)c1)C(=O)O here
Reply: FALSE

Task item: Hi team, can someone confirm the assay call for CC1Cc2ccccc2N1NC(=O)c1ccc(Cl)c(S(N)(=O)=O)c1 (stereo unspecified) ?
Reply: FALSE

Task item: Could you kindly confirm the outcome this assay logged for O=C1c2ccccc2-c2n[nH]c3cccc1c23 ?
Reply: FALSE

Task item: Please share the test call associated with Cc1cc(=O)oc2cc(O)ccc12 .
Reply: FALSE

Task item: Identify the outcome logged in this assay for the compound shown: O=c1c(O)c(-c2ccc(O)cc2O)oc2cc(O)cc(O)c12
Reply: FALSE

Task item: Query: recorded result category for COc1ccccc1N1CCN(CCN(C(=O)C2CCCCC2)c2ccccn2)CC1 in this test
Reply: FALSE

Task item: How was Oc1ccc(OCc2ccccc2)cc1 classified in this test?
Reply: FALSE

Task item: Write down the call the test reported for this compound. Item: CC1(C)C(=O)N(CCN2CCC(C(=O)c3ccc(F)cc3)CC2)c2ccccc21
Reply: FALSE

Task item: Dear all, I need the recorded test outcome for CCN(CCO)CCCC(C)Nc1ccnc2cc(Cl)ccc12 (stereo unspecified) , thank you.
Reply: FALSE

Task item: # outcome recorded in this test, key = CC(C)(S)[C@@H](N)C(=O)O
Reply: FALSE

Task item: Hi team, can someone confirm the assay call for CN(C)c1ccc(O)c2c1C[C@H]1C[C@H]3[C@H](N(C)C)C(=O)C(C(N)=O)=C(O)[C@@]3(O)C(=O)C1=C2O ?
Reply: FALSE

Task item: Field: outcome | Entry: Clc1ccc(C(Cn2ccnc2)OCc2c(Cl)cccc2Cl)c(Cl)c1 (stereo unspecified)
Reply: FALSE

Task item: For c1ccc2[nH]c(-c3cscn3)nc2c1 , what call appears in the results of this test?
Reply: FALSE

Task item: Identify the outcome logged in this assay for the compound shown: O=C(NOCC1CC1)c1ccc(F)c(F)c1Nc1ccc(I)cc1Cl
Reply: FALSE

Task item: Recorded test call requested for COC(=O)C1=C(C)NC(C)=C(C(=O)OC(C)C)C1c1cccc2nonc12 (stereo unspecified)
Reply: FALSE

Task item: // return assay outcome for CC1=C(C(=O)O)N2C(=O)[C@@H](NC(=O)[C@H](N)C3=CCC=CC3)[C@H]2SC1
Reply: FALSE

Task item: Kindly provide the recorded test outcome for the following compound: C[C@H](Cc1ccc(O)c(O)c1)[C@@H](C)Cc1ccc(O)c(O)c1
Reply: FALSE

Task item: Outcome? C[C@@H](c1ncncc1F)[C@](O)(Cn1cncn1)c1ccc(F)cc1F
Reply: FALSE

Task item: Could you kindly confirm the outcome this assay logged for COc1c(O)cc2c(c1O)[C@@H]1O[C@H](CO)[C@@H](O)[C@H](O)[C@H]1OC2=O ?
Reply: FALSE

Task item: Lab log entry: C[Se]CCC(N)C(=O)O (stereo unspecified) — outcome as called in the assay?
Reply: FALSE

Task item: How did this test come out for Cc1cccc(CN2CCN(C(c3ccccc3)c3ccc(Cl)cc3)CC2)c1 (stereo unspecified) ?
Reply: FALSE

Task item: Outcome? CC1(C)NC(=O)N(c2ccc([N+](=O)[O-])c(C(F)(F)F)c2)C1=O
Reply: FALSE

Task item: What did this assay record as the result for CCOC(=O)C(C)Oc1cccc2c(=O)n(CC(=O)Nc3ccc4c(c3)OCCO4)ccc12 (stereo unspecified) ?
Reply: FALSE

Task item: Could you kindly confirm the outcome this assay logged for Clc1ccc(C(Cn2ccnc2)OCc2ccc(Sc3ccccc3)cc2)c(Cl)c1 (stereo unspecified) ?
Reply: FALSE

Task item: // outcome(item) with item = CC(C)[N+]1(C)[C@@H]2CC[C@H]1CC(OC(=O)C(CO)c1ccccc1)C2 (stereo partly specified)
Reply: FALSE

Task item: For CN(C)CCc1c[nH]c2ccc(Cn3cncn3)cc12 , what call appears in the results of this test?
Reply: FALSE

Task item: Fill in: this test's call for CN(C)[C@@H](CCOc1cccc2ccccc12)c1ccccc1 is ___
Reply: FALSE

Task item: # outcome recorded in this test, key = Cc1ccc(Nc2nccc(N(C)c3ccc4c(C)n(C)nc4c3)n2)cc1S(N)(=O)=O
Reply: FALSE

Task item: Assay outcome for O=C(O)c1cccnc1Nc1cccc(C(F)(F)F)c1 : what was it?
Reply: FALSE

Task item: Please let me know the test result on file for Cc1cccc(-c2[nH]ncc2-c2ccc3ncccc3n2)n1 .
Reply: FALSE

Task item: Assay result, entry Cc1cc(=O)c2c(O)c3c(O)cc(=O)c4c3c3c(cc(O)c1c23)C(C)(C)C=4O — outcome?
Reply: FALSE

Task item: Record request — test call for O=C1NC(=O)C(c2ccccc2[N+](=O)[O-])=C1Nc1ccc(O)c(Cl)c1
Reply: FALSE

Task item: Which result was noted for this compound in the test: Cc1cc2c(s1)Nc1ccccc1N=C2N1CCN(C)CC1
Reply: FALSE

Task item: I'd appreciate the recorded outcome for COC(=O)[C@H](Cc1ccccc1)NC(=O)[C@@H](N)CC(=O)O (H-Asp-Phe-OMe) from this test.
Reply: FALSE

Task item: Would you mind telling me which call this test gave CC1(C)CCC(C)(C)c2cc(NC(=O)c3ccc(C(=O)O)cc3)ccc21 ?
Reply: FALSE

Task item: Could you kindly confirm the outcome this assay logged for Clc1ccc(C(Cn2ccnc2)OCc2ccsc2Cl)c(Cl)c1 (stereo unspecified) ?
Reply: FALSE

Task item: Answer briefly: the call reported for CCN(CC)CCOc1ccc(Cc2ccccc2)cc1 in this assay.
Reply: FALSE

Task item: What was the test verdict on CC(=O)O[C@H]1C(=O)[C@@]2(C)C([C@H](OC(=O)c3ccccc3)[C@]3(O)C[C@H](OC(=O)[C@H](O)[C@@H](NC(=O)c4ccccc4)c4ccccc4)C(C)=C1C3(C)C)[C@]1(OC(C)=O)CO[C@@H]1C[C@@H]2O (stereo partly specified) ?
Reply: TRUE

Task item: For CC(C)CC(=O)N[C@H](C(=O)N[C@H](C(=O)N[C@@H](CC(C)C)[C@@H](O)CC(=O)N[C@@H](C)C(=O)N[C@@H](CC(C)C)[C@@H](O)CC(=O)O)C(C)C)C(C)C (Isovaleryl-VV[Sta]A[Sta]-OH) , what call appears in the results of this test?
Reply: FALSE

Task item: Recorded test call requested for Cc1c(C(=O)NN2CCCCC2)nn(-c2ccc(Cl)cc2Cl)c1-c1ccc(Cl)cc1
Reply: FALSE
